B1: TPR t1 (parent)
chain: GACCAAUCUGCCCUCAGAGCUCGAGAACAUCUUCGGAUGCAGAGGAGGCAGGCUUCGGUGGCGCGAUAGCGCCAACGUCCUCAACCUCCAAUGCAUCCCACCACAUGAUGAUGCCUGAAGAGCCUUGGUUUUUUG

Variants of: B1
Experimental details: polymerase ribozyme fitness, log enrichment relative to wild type (log ratio); higher = more active; in vitro selection for triplet polymerase activity
Recorded metric: polymerase ribozyme fitness (log ratio)
Just the number.

The cases that follow already have their polymerase ribozyme fitness (log ratio) on record.
{"Mutation list": "U33G G52C C64G U78A C98A U112G U116G", "polymerase ribozyme fitness (log ratio)": -7.08}
{"Mutation list": "A66U U106A G117A", "polymerase ribozyme fitness (log ratio)": -2}
{"Mutation list": "U7A C8A C11U C34U G48U C53A C72A", "polymerase ribozyme fitness (log ratio)": -5.13}
{"Mutation list": "G45A A46G A50C C89A", "polymerase ribozyme fitness (log ratio)": -3.72}

Query: Supply reported polymerase ribozyme fitness (log ratio) belonging to this variant: C11A G60C A95C
Result: -1.9

Query: Supply reported polymerase ribozyme fitness (log ratio) belonging to this variant: C13A U87A U106A
Result: -2.48

Query: Supply reported polymerase ribozyme fitness (log ratio) belonging to this variant: A27U C94U U106A G110U
Result: -2.09

Query: Supply reported polymerase ribozyme fitness (log ratio) belonging to this variant: G93U G110C
Result: -4.54

Query: Supply reported polymerase ribozyme fitness (log ratio) belonging to this variant: C56U U78G G93U G113A
Result: -2.45

Values from the RNAGym collection of RNA variant scans (doi:10.1073/pnas.2313332121)
